# ASSAY_PROCEDURE: soluble on expression in E. coli; label from the status in PepcDB or PDB records
VALUE_TYPE: soluble on expression in E. coli

MNDETPRCPYNSLYKPLNLIKSKPDGCFKHNGQCTYGKNLVESVDDGNSRTPYNSIYEPLSLNKPKPDGRSSNGKKPVDNEYVNLPVLSEEQKLADKLAAKLRKLEVKEPKSKKRGSKERKKKKSEPVESTYESLATIEGSTNYSGPVTTESLESNVKFHHASQTAYIGVYSSADAEAQVKNRGEFALYHLFEVGNGIDHLTATLPLMLVYYTTTKKHRHYPVRESGGKGMVQYSVDCGYPIVRKHYSLNQLVQYYKSFGSIQMKQEDTCSEEFSWWLE
not soluble
MGSDKIHHHHHHMDYNQTVLSHLQKFWKHHDIKGFTWTLGRIVEELPDFQVFQVIPNHEDEPWVYVSSGIGQFLGQEFFIISPFETPEHIETLAMLASASMHYPDQFQLGKTVNIGRPWVEQSSFRHFLISLPYPYGQELEYMDNVRFFWLLPITQTERLFLNTHSVEELETKFDEAGIDYLDINRASTVWQAG
not soluble
